# normalized growth per entry
- assay_info: chemical genetic growth profiling, strain panel (AID 1159580);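 further: tested at 20 µM; growth read once vehicle control cultures reached saturation at 30 °C; 1 = growth at the plate median or of vehicle wells; lower values mean less growth of the strain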
- test_conditions: S. cerevisiae deletion strains, growth OD, locus YLR330W, strain CHS5, stronger effect = lower value
In all, about 5,500 compounds went through this assay and about 2,000 (36%) were called active. Roughly 18% stayed inconclusive and do not appear here. The list shows a part of the results.
Answer with a number only.

Clc1cccc(Cl)c1NC1=NCCN1 : 1.01
COc1c(OC)c2occc2c2oc(=O)ccc12 : 0.939
Cc1cccc(C)c1NC1=NCCCS1 : 0.991
Nc1ccn(C2O[C@H](CO)[C@@H](O)[C@@H]2O)c(=O)n1 (some centres not stated) : 1.01
COc1c2ccoc2c(OC)c2oc(=O)ccc12 : 0.963
NS(=O)(=O)c1cc2c(cc1Cl)NC(C(Cl)Cl)NS2(=O)=O (configuration not stated) : 1

IN: Give the measured normalized growth of "COC(=O)C1=CCCN(C)C1" .
OUT: 0.991

----------
- assay_info: chemical genetic growth profiling, strain panel (AID 1159580)
- test_conditions: S. cerevisiae deletion strains, growth OD, locus YMR058W, strain fet3
The whole screen tested about 5,500 compounds, of which about 2,000 (36%) were called active. About 18% were inconclusive and are not listed. Rule as the data show it: active = normalized growth mostly below about 0.91 (no sharp cut-off); inconclusive = no clear call, values can overlap the other calls; inactive = mostly above about 0.92. Some of the results follow.
Hello, when you answer, please use one of the following outcomes: active, inactive

Example entries and their recorded answers appear below.
COc1cc([C@@H]2c3cc4c(c(O)c3C[C@H]3COC(=O)[C@@H]32)OCO4)cc(OC)c1OC : inactive
CCCCCCOc1ccccc1C(N)=O : active
C=CCSCC1Nc2cc(Cl)c(S(N)(=O)=O)cc2S(=O)(=O)N1 (stereo unspecified) : inactive
COc1ccc([C@H]2Oc3cc(OC)cc(OC)c3C[C@H]2O)cc1 : inactive

IN: What was the test verdict on "O=c1cc(-c2ccccc2O)oc2cc(O)ccc12" ?
OUT: inactive

IN: What was the test verdict on "O=C1C=C2C=C[C@@H]3C[C@@]2(O1)[C@H]1CCCCN31" ?
OUT: inactive

IN: What was the test verdict on "CCOC(=O)[C@H](CCc1ccccc1)N[C@@H](C)C(=O)N1[C@H](C(=O)O)C[C@@H]2CCC[C@@H]21" ?
OUT: inactive

----------
- assay_info: chemical genetic growth profiling, strain panel (AID 1159580)
- test_conditions: S. cerevisiae deletion strains, growth OD, locus YNL298W, strain CLA4, stronger effect = lower value
The campaign covered roughly 5,500 compounds. About 2,000 (36%) were called active. Not shown: some 18% with an inconclusive outcome. The list shows a part of the results.
Decide using normalized growth alone. Strictly below 1: Satisfied. Equal to or above 1: Not satisfied.

Cc1ccc(Cl)c(Nc2ccccc2C(=O)O)c1Cl : Satisfied

// switching to the query compound
IN: Does the reported normalized growth of "CC(C)(C)CC(C)(C)c1ccc(O)c(Cc2ccc(Cl)cc2Cl)c1" stay below 1?
OUT: Not satisfied

----------
# normalized growth per entry
- assay_info: chemical genetic growth profiling, strain panel (AID 1159580)
- test_conditions: S. cerevisiae deletion strains, growth OD, locus YDL101C, strain DUN1, stronger effect = lower value
Among all 5,500 compounds or so, about 2,000 (36%) were called active. Roughly 18% stayed inconclusive and do not appear here. The list shows a part of the results.
Answer with a number only.

Please review the following examples before continuing.
O=C(c1ccc(-c2ccccc2)cc1)c1cc2cc([N+](=O)[O-])ccc2o1 : 1.02
CC(C)NC[C@H](O)COc1cccc2ccccc12 : 1.01
CC[N+](CC)(CC)CCOc1cccc(OCC[N+](CC)(CC)CC)c1OCC[N+](CC)(CC)CC : 1.01
CC1C[C@H]2CC(=O)[C@H]3CCCN4CCC[C@H]2[C@]34C1 (stereo not given in full) : 1.02

// below: normalized growth requested for another molecule
IN: Give the measured normalized growth of O=[N+]([O-])c1ccc2oc(C(O)c3cccc(Cl)c3)cc2c1 (stereo not given) .
OUT: 0.937

----------
- assay_info: chemical genetic growth profiling, strain panel (AID 1159580)
- test_conditions: S. cerevisiae deletion strains, growth OD, locus YLR342W, strain FKS1, stronger effect = lower value
The campaign covered roughly 5,500 compounds. About 2,000 (36%) were called active. Another 18% or so got no clear call; they are omitted. The list shows a part of the results.
measure_name: normalized growth
Answer with a number only.

IN: Give the measured normalized growth of COC(=O)C(C)c1ccc(C(=O)c2cccs2)cc1 (stereo not drawn) .
OUT: 1.02

IN: Give the measured normalized growth of "CCOC(=O)Nc1nc2ccccc2[nH]1" .
OUT: 0.988

IN: Give the measured normalized growth of "CC(C)C(=O)Nc1ccc([N+](=O)[O-])c(C(F)(F)F)c1" .
OUT: 1.01

IN: Give the measured normalized growth of C#CCCCCCCCCCCCC(=O)CC(O)COC(C)=O (stereo not drawn) .
OUT: 0.953

IN: Give the measured normalized growth of CC(C)COCC(CN(Cc1ccccc1)c1ccccc1)N1CCCC1 (stereo not drawn) .
OUT: 1

----------
- assay_info: chemical genetic growth profiling, strain panel (AID 1159580)
- test_conditions: S. cerevisiae deletion strains, growth OD, locus YOR270C, strain vph1, stronger effect = lower value
Among all 5,500 compounds or so, about 2,000 (36%) were called active. Roughly 18% stayed inconclusive and do not appear here. This is one part of the list.
Decide using normalized growth alone. Strictly below 0.9: true (1). Equal to or above 0.9: false (0).

C[C@@H]1C(=O)OC2[C@H](O)C34[C@@H]5OC(=O)[C@@]3(O[C@@H]3OC(=O)[C@H](O)[C@@]34[C@H](C(C)(C)C)[C@H]5O)[C@]21O (stereo partly specified) : false (0)
O=S1OCC2C(CO1)C1(Cl)C(Cl)=C(Cl)C2(Cl)C1(Cl)Cl (stereo unspecified) : true (1)
C=CC(N)CCC(=O)O (stereo unspecified) : false (0)
CC(=O)N[C@@H](CS)C(=O)O : false (0)
OC(Cn1cncn1)(Cn1cncn1)c1ccc(F)cc1F : false (0)

// switching to the query molecule
IN: Does the reported normalized growth of C=CCSCC1Nc2cc(Cl)c(S(N)(=O)=O)cc2S(=O)(=O)N1 (stereo unspecified) stay below 0.9?
OUT: false (0)

----------
- assay_info: chemical genetic growth profiling, strain panel (AID 1159580);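 further: tested at 20 µM; growth read once vehicle control cultures reached saturation at 30 °C; 1 = growth at the plate median or of vehicle wells; lower values mean less growth of the strain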
- test_conditions: S. cerevisiae deletion strains, growth OD, locus YLR370C, strain arc18, stronger effect = lower value
Screen size: about 5,500 compounds; about 2,000 (36%) were called active. Roughly 18% stayed inconclusive and do not appear here. Some of the results follow.
# normalized growth per entry
Answer with a number only.

Nc1ccn(C2O[C@H](CO)[C@@H](O)[C@@H]2O)c(=O)n1 (stereo not given in full) : 1.01

IN: Give the measured normalized growth of "CCNC(=O)CC[C@H](N)C(=O)O" .
OUT: 1

IN: Give the measured normalized growth of "Cc1cc(-c2ccccc2)nnc1NCCN1CCOCC1" .
OUT: 0.986

IN: Give the measured normalized growth of "COc1ccc([C@H]2Oc3cc(OC)cc(OC)c3C[C@H]2O)cc1" .
OUT: 0.99

IN: Give the measured normalized growth of "CO/N=C(\C(=O)N[C@@H]1C(=O)N2C(C(=O)O)=C(COC(C)=O)CS[C@H]12)c1csc(N)n1" .
OUT: 0.994

IN: Give the measured normalized growth of "COc1cc([C@@H]2c3cc4c(c(O)c3C[C@H]3COC(=O)[C@@H]32)OCO4)cc(OC)c1OC" .
OUT: 1

----------
- assay_info: chemical genetic growth profiling, strain panel (AID 1159580);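 further: tested at 20 µM; growth read once vehicle control cultures reached saturation at 30 °C; 1 = growth at the plate median or of vehicle wells; lower values mean less growth of the strain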
- test_conditions: S. cerevisiae deletion strains, growth OD, locus YIL066C, strain RNR3, stronger effect = lower value
About 2,000 (36%) of roughly 5,500 compounds were called active. Not shown: some 18% with an inconclusive outcome. Some of the results follow.
measure_name: normalized growth

Please review the following examples before continuing.
CC(C)NNC(=O)c1ccncc1 : 1.02 (inactive)
C=C1C(=O)O[C@@H]2C[C@@]3(C)CCC[C@H](C)C3=C[C@H]12 : 0.756 (active)
O=C1[C@H](CCC(O)c2ccc(F)cc2)[C@@H](c2ccc(O)cc2)N1c1ccc(F)cc1 (stereo not given in full) : 0.985 (inactive)
CO/N=C(\C(=O)N[C@@H]1C(=O)N2C(C(=O)O)=C(CSc3nc(=O)c(O)nn3C)CS[C@H]12)c1csc(N)n1 : 1.02 (inactive)

// below: normalized growth requested for another compound
IN: Give the measured normalized growth of CO/N=C(\C(=O)NC1C(=O)N2C(C(=O)O)=C(COC(N)=O)CSC12)c1ccco1 (stereo not given) .
OUT: 0.0444 (active)

----------
- assay_info: chemical genetic growth profiling, strain panel (AID 1159580);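 further: tested at 20 µM; growth read once vehicle control cultures reached saturation at 30 °C; 1 = growth at the plate median or of vehicle wells; lower values mean less growth of the strain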
- test_conditions: S. cerevisiae deletion strains, growth OD, locus YDL074C, strain BRE1, stronger effect = lower value
The whole screen tested about 5,500 compounds, of which about 2,000 (36%) were called active. Roughly 18% stayed inconclusive and do not appear here. The list shows a part of the results.
measure_name: normalized growth
Answer with a number only.

CC(C)[C@@H]1CC[C@@H](C)C[C@H]1O : 0.997
CC1(C)O[C@H]2[C@H](O)C[C@](O)(C(N)=O)C[C@H]2O1 : 1.12
C[N+]1(C)C2CC(OC(=O)[C@@H](CO)c3ccccc3)CC1C1OC12 (stereo partly specified) : 1.05
O=C(O)c1cc2cc(Cc3cccnc3)ccc2o1 : 0.995
CN1C(C(=O)Nc2ccccn2)=C(O)c2ccccc2S1(=O)=O : 0.992

IN: Give the measured normalized growth of "O=C(O)CN1C(=O)c2cccc3cccc(c23)C1=O" .
OUT: 1.05
